- target-or-test-system: T1, human IL-2Rβ (human, UniProt P14784 27-240, limits assumed)
- T1 construct: recombinant protein, coated or immobilised; also called hu IL-2R; IL-2R beta
- T1 sequence: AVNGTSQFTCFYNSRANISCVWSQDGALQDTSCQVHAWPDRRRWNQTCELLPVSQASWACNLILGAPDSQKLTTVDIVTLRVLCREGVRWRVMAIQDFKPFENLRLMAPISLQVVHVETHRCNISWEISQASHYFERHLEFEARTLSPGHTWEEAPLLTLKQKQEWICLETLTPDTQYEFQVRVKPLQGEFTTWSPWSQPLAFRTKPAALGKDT
- experiment: SPR, P.E. off-rate
reported-property: koff (s⁻¹)

{"columns": ["binder", "value-observed"],
 "data": [
  ["FJ1427 P035MP02C08 (VHH, soluble VHH in periplasmic extract; also called clone nr) VHH: EVQLVESGGGLVQAGGSLRLSCAASGSTFSRQPMYWFRQAPGKEREFVAAITWSGRGTLYADSVEGRFTISRDNAKNTVYLQMNSLRPDDTAAYYCAAGPYGDAAYRHGRIDSWGQGTQVTVSS", 0.00333],
  ["FJ1427 P035MP02H10 (VHH, soluble VHH in periplasmic extract; also called clone nr) VHH: EVQLVESGGGLVQAGGSLRLSCAASGDVFVRYTMAWFRQAPGKEREFVASVTDSGRTTDYVDSVKGRFTVSRDNAKNTVYLQMNNLKPEDTAVYYCAANTDYFQIKSLDRNTWGQGTQVTVSS", 0.000757],
  ["FJ1427_P035MP02C07 (VHH, soluble VHH in periplasmic extract; also called clone nr) VHH: QVQLVESGGGLVQAGGSLRLSCAASGRTFSINTMGWFRQAPGKEREFVAAISRSGDSTVYVDSVKGRFTISRDNAKNTVYLQMNTLKPEDTAVYYCATTVAVGWTTRWSTIDFDSWGQGTQVTVSS", 0.00231],
  ["FJ1427_P035MP02F01 (VHH, soluble VHH in periplasmic extract; also called clone nr) VHH: EVQLVESGGGLVQTGGSLRLSCAVSGSRFISDVMGWYRQVPGKQRELVADMADGGSAKYADSVKGRFSILRDSVKNTVYLQMSSLKPEDTGIYYCKAGLWIAGRHSDYWGQGTQVTVSS", 0.0003],
  ["FJ1427_P035MP02F08 (VHH, soluble VHH in periplasmic extract; also called clone nr) VHH: QVQLVESGGGLVQAGGSLRLSCAASGSIFSLNTMGWFRQAPGKEREFVAAISRSGGSATYGDSVKGRFTISTNNAKTTVYLQMNSLKPDDTAVYSCAASAAVGWTTRWSTIDFDSWGQGTQVTVSS", 0.00153],
  ["FJ1427 P035MP02F02 (VHH, soluble VHH in periplasmic extract; also called clone nr; 110) VHH: EVQLVESGGGLVQAGGSLRLACALSGDVFVRYTMAWFRQAPGKEREFVASVTDSGRTTDYVASVQGRFTVSRDNNKNTVYLQMNSLKPEDTAVYYCAANTDYFQIRSLDRNTWGQGTQVTVSS", 0.000617],
  ["FJ1427_P035MP02G03 (VHH, soluble VHH in periplasmic extract; also called clone nr) VHH: QVQLVESGGGLVQPGGSLGLSCAASGFTFSNYAMSWVRQAPGKGLEWVASITGFGRGTDYADSVKGRFTVSRDNAKNTLYLQMNSLKPEDTAVYYCAKYSSSTYYPPTPARGRDYRGQGTQVTVSS", 0.00293],
  ["FJ1427_P035MP02E05 (VHH, soluble VHH in periplasmic extract; also called clone nr) VHH: EVQLVESGGGLVQIGGSLRLSCAASGRTFSSITMAYFRQVPGKEHEWVAGINFSGTRTFYADSVKGRFLISRDDAKSTMYLQMNSLKPEDTAVYYCAASPRGFYGPGNALYDYWGQGTQVTVSS", 0.00031]
]}
